- Test system: antibodies raised to Immunogens I & II
- procedure_summary: Competitive ELISA, selected molecules as potential cross-reactants (Table 3)
- Assay type: binding, sheep
observation_type: binding / cross-reaction with antibodies raised from Immunogens I and II (in words)

>>> recorded_measurement("O=C(c1cccc2ccccc12)c1cn(CCCCCF)c2ccccc12")
"binds"
>>> recorded_measurement("CCCCCn1cc(C(=O)c2ccc(Cl)c3ccccc23)c2ccccc21")
"bind"
>>> recorded_measurement("CCn1cc(C(=O)c2cccc3ccccc23)c2ccccc21")
"bind"
>>> recorded_measurement("O=C(O)CCCCn1cc(C(=O)c2cccc3ccccc23)c2ccccc21 [JWH-018 N-pentanoic acid metabolite]")
"bind"
